Collected MIC values appear next to each entry.
Test system: Haemophilus influenzae
Experiment: Antibacterial activity against Haemophilus influenzae
Assay type: functional

Query: MIC; subject: COc1cc(Cc2cnc(N)nc2N)cc(/C=C/C(=O)N2N=Cc3ccccc3C2c2cnc(N3CCOCC3)nc2)c1OC (centres undefined)
> 128 µg/mL

Reported MIC for COc1cc(Cc2cnc(N)nc2N)cc(OC)c1OC : what is it?
> 128 µg/mL

Look up MIC: COc1cc(Cc2cnc(N)nc2N)cc(/C=C/C(=O)N2N=Cc3ccccc3C2c2cnc(N(C)C)nc2)c1OC (centres undefined)
> 128 µg/mL

Quick one: MIC for COc1ncc(C2c3ccccc3C=NN2C(=O)/C=C/c2cc(Cc3cnc(N)nc3N)cc(OC)c2OC)cn1 (centres undefined) ?
> 128 µg/mL
